Measured MIC by item
Tested on: up to 32 different microorganisms
Assay: in vitro antibacterial activity (MIC), agar dilution on Brain Heart Infusion (BHI) agar with Steers replicator
Format: cell-based
Details: organism code KK; unit assumed
reportedEndpoint: MIC (µg/mL)

[[record]]
molecule = "CC[C@H]1OC(=O)[C@H](C)C(=O)[C@H](C)[C@@H](O[C@@H]2O[C@H](C)C[C@H](N(C)C)[C@H]2O)[C@@](C)(OCC#CBr)C[C@@H](C)C(=O)[C@H](C)[C@H]2NC(=O)O[C@@]21C"
assaytarget = "up to 32 different microorganisms"
reportedendpoint = "MIC"
resultqualifier = "="
numericvalue = 0.1

[[record]]
molecule = "CC[C@H]1OC(=O)[C@H](C)C(=O)[C@H](C)[C@@H](O[C@@H]2O[C@H](C)C[C@H](N(C)C)[C@H]2O)[C@@](C)(OCC=O)C[C@@H](C)C(=O)[C@H](C)[C@H]2NC(=O)O[C@@]21C"
assaytarget = "up to 32 different microorganisms"
reportedendpoint = "MIC"
resultqualifier = "="
numericvalue = 0.02

[[record]]
molecule = "CC[C@H]1OC(=O)[C@H](C)C(=O)[C@H](C)[C@@H](O[C@@H]2O[C@H](C)C[C@H](N(C)C)[C@H]2O)[C@@](C)(OCC#Cc2cnc3ccc([N+](=O)[O-])cc3c2)C[C@@H](C)C(=O)[C@H](C)[C@H]2NC(=O)O[C@@]21C"
assaytarget = "up to 32 different microorganisms"
reportedendpoint = "MIC"
resultqualifier = "≤"
numericvalue = 0.005

[[record]]
molecule = "CCC1OC(=O)C(C)C(=O)C(C)C(OC2OC(C)CC(N(C)C)C2O)C(C)(OCC=Cc2cc(Cl)cc(Cl)c2)CC(C)C(=O)C(C)C2NC(=O)OC12C (stereo not drawn)"
assaytarget = "up to 32 different microorganisms"
reportedendpoint = "MIC"
resultqualifier = "="
numericvalue = 0.02

[[record]]
molecule = "CC[C@H]1OC(=O)[C@H](C)C(=O)[C@H](C)[C@@H](O[C@@H]2O[C@H](C)C[C@H](N(C)C)[C@H]2O)[C@@](C)(OCC=NOCc2cnc3ccccc3c2)C[C@@H](C)C(=O)[C@H](C)[C@H]2NC(=O)O[C@@]21C"
assaytarget = "up to 32 different microorganisms"
reportedendpoint = "MIC"
resultqualifier = "="
numericvalue = 0.02

[[record]]
molecule = "CC[C@H]1OC(=O)[C@H](C)C(=O)[C@H](C)[C@@H](O[C@@H]2O[C@H](C)C[C@H](N(C)C)[C@H]2O)[C@@](C)(OCC(=O)c2ccc(F)cc2)C[C@@H](C)C(=O)[C@H](C)[C@H]2NC(=O)O[C@@]21C"
assaytarget = "up to 32 different microorganisms"
reportedendpoint = "MIC"
resultqualifier = "="
numericvalue = 0.39

[[record]]
molecule = "CC[C@H]1OC(=O)[C@H](C)C(=O)[C@H](C)[C@@H](O[C@@H]2O[C@H](C)C[C@H](N(C)C)[C@H]2O)[C@@](C)(OCC=NNC(=O)c2ccccc2)C[C@@H](C)C(=O)[C@H](C)[C@H]2NC(=O)O[C@@]21C"
assaytarget = "up to 32 different microorganisms"
reportedendpoint = "MIC"
resultqualifier = "="
numericvalue = 1.56

[[record]]
molecule = "CCC1OC(=O)C(C)C(=O)C(C)C(OC2OC(C)CC(N(C)C)C2O)C(C)(OCC=Cc2ccc3nccnc3c2)CC(C)C(=O)C(C)C2NC(=O)OC12C (stereo not drawn)"
assaytarget = "up to 32 different microorganisms"
reportedendpoint = "MIC"
resultqualifier = "≤"
numericvalue = 0.005

[[record]]
molecule = "CCC1OC(=O)C(C)C(=O)C(C)C(OC2OC(C)CC(N(C)C)C2O)C(C)(OCC=Cc2cnc3ccc(C(N)=O)cc3c2)CC(C)C(=O)C(C)C2NC(=O)OC12C (stereo not drawn)"
assaytarget = "up to 32 different microorganisms"
reportedendpoint = "MIC"
resultqualifier = "="
numericvalue = 0.02

